experiment: antimalarial activity against Dd2 strain (AID 2302);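 note: 0% = DMSO untreated growth and 100% = chloroquine plus artemisinin killed control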; settings: P. falciparum Dd2 in RBCs, LDH growth readout, 72 h; at 2 µM; stronger effect = higher value
Mark Not satisfied for growth inhibition values under 30%, and Satisfied for everything at or above.

Here's what some known entries look like.
| compound | assigned category |
| --- | --- |
| Cc1cc(NN=Cc2ccccc2Cl)c2cc(C(F)(F)F)ccc2n1 | Satisfied |
| CCN(CCN(C)C)Cc1ccc(-c2ccc(NS(=O)(=O)c3cccc(Cl)c3)cc2)cc1 | Satisfied |
| CCC[C@@H](/C=N/N(C)C(=O)OC(C)(C)C)NC(=O)[C@H](CC(C)C)NC(=O)c1cc2cccc(OC)c2o1 | Satisfied |
| COc1cc(Cc2cnc(N)nc2N)cc(OCCCOc2ccccc2)c1OC | Not satisfied |
| COc1ccc2nc(C)cc(NCc3cccc4ccccc34)c2c1 | Satisfied |
| COc1cc(NC(=O)CCCCCCCN2CCN(C)CC2)c2ncccc2c1 | Satisfied |
| CCN(CCCN1CCCCC1)c1cc(C)nc(Nc2ccc(Cl)cc2C)n1 | Satisfied |
| O=C(N[C@@H](Cc1ccccc1)[C@H](O)CNCCC(F)(F)F)c1cccc(OCC2CC2)c1 | Satisfied |
| CCNc1cc(C(=O)N[C@@H](Cc2ccccc2)[C@H](O)CNC(C)(C)CC(C)(C)C)c(F)c(N2CCCCS2(=O)=O)c1 | Satisfied |
| Cc1cc(N[C@@H](CC(C)C)C(=O)NCc2cccs2)nc(NCCc2cccs2)n1 | Not satisfied |

Check if growth inhibition >= 30% (inclusive). Item: CC(C)(C)SCC(O)Cn1c2ccc(Br)cc2c2cc(Br)ccc21 (stereo not given)
Satisfied

Is growth inhibition for COc1ccc(NS(=O)(=O)c2cccc(C(=O)Nc3ccc(C(F)(F)F)cc3)c2)cc1N1CCN(CC(C)C)CC1 at or above 30%?
Not satisfied

Reported growth inhibition reaches at least 30% for ON=C(c1nc2ccccc2[nH]1)c1nc2ccccc2[nH]1 ?
Satisfied

Identify whether the reported growth inhibition of the following compound is 30% or greater: Cc1cc(NC(c2ccc(Cl)cc2)c2ccc3cccnc3c2O)no1 (stereo not given)
Not satisfied

Dear colleague, could you confirm whether CC[C@H]1CN(CCCn2c3ccccc3c3ccccc32)[C@@H](CC)CN1 has growth inhibition at or above 30%?
Not satisfied

Say whether O=C(CCC1CCCCC1)NCCNc1cccc2ccccc12 shows growth inhibition of 30% or more.
Satisfied

Entry O=C(Nc1cccc(-c2csc(-c3nc4ccccc4[nH]3)c2)c1)c1ccoc1 : is its growth inhibition no less than 30%?
Satisfied

Hi, just wondering whether CCCCOc1ccc(N2C(N)=NC(N)=NC2(C)C)cc1 shows growth inhibition of 30% or higher.
Not satisfied

Decide: is the reported value of growth inhibition for O=C(/C=C/c1ccc(C(F)(F)F)cc1)NCCCCCN1CCN(C(=O)Nc2ccc(F)c(Cl)c2)CC1 equal to or greater than 30%?
Not satisfied

Has CCOC(=O)C1=C(C)NC2=C(C(=O)C(C(=O)OC)C(C)C2)C1c1cc(Br)c(OCC)c(OC)c1 (stereo not given) a recorded growth inhibition greater than or equal to 30%?
Satisfied

---

Reported growth inhibition by item:
assay: inhibition of 3D7 malaria parasite growth – strain 3D7 (AID 2306);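 note: 0% = DMSO wells and 100% = chloroquine plus artemisinin control wells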; conditions: P. falciparum 3D7 erythrocytic growth, LDH absorbance, 72 h; at 2 µM; stronger effect = higher value
Report as a plain number; the unit % is understood.

Answered examples (3):
| molecule smiles | endpoint name | result value |
| --- | --- | --- |
| CCCC1(NC[C@@H](O)[C@H](Cc2ccccc2)NC(=O)c2cc(NCC)cc(N3CCCCS3(=O)=O)c2)CCCC1 | growth inhibition | 101 |
| CC(=O)Nc1ccc2[nH]cc(C3CCN(CCC4CCN(C(=O)/C=C/c5ccc(Cl)c(Cl)c5)CC4)CC3)c2c1 | growth inhibition | 95 |
| COc1cc2nc(NCc3cccc(CNC(=O)c4ccc(-c5ccc(C(C)=O)cc5)cc4)c3)nc(N)c2cc1OC | growth inhibition | 100 |

Moving on to the next compound.
Field request: growth inhibition | item: O=S(=O)(NCCN1CCCC1)c1ccc(-c2ccc(CNCc3ccsc3)cc2)cc1F
96

---

experiment: human hepatoma cell viability loss – ATP luminescence, cytotoxicity control for P. falciparum antimalarial project, primary screen (AID 2303); details: HepG2 viability, 24-48 h, at 10 µM, stronger effect = higher value;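 note: 0% = DMSO wells and 100% = digitonin-killed cells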
endpoint name: inhibition (%)
Numbers only here, please. The scale is %.

Endpoint output: inhibition of COc1ccc2ncc(F)c(CCN3CCC(CNCc4cccc5c4OCO5)CC3)c2n1 . Value?
39

Any idea what its inhibition is? The molecule is COc1cc(Cc2cnc(N)nc2N)c2ccsc2c1OC
5

Bench note: what inhibition did CCCCCCC(C)c1cc(O)c2c(c1)OC(C)(C)C=C2c1ccncc1 (stereo not given) show?
-7

Quick one: inhibition for CCOc1ccc(C(=O)Nc2nonc2-c2ccc(OC)c(OC)c2)cc1 ?
7

Which inhibition reading was recorded for the molecule CCOc1cc(C)ccc1NC1CCN(CCCCNC(=O)c2ccc(NC(=O)c3ccc(Cl)cc3)cc2)CC1 ?
17

# input molecule: COc1ccc(NC(=O)/C=C/c2cc(Br)ccc2F)cc1OCCN(C(C)C)C(C)C ; wanted: its inhibition
22

Which value of inhibition has been reported for O=C(NCCCN1CCC(N2CCCCC2)CC1)C1=Cc2cc(Br)ccc2OC1 in the records?
26

---

test: human hepatoma cell viability loss – ATP luminescence, cytotoxicity control for P. falciparum antimalarial project, primary screen (AID 2303); conditions: HepG2 viability, 24-48 h, at 10 µM;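 note: 0% = DMSO wells and 100% = digitonin-killed cells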
Active and inactive are the calls of the source.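 How the source made its calls: active means inhibition above 50%; inactive means the rest.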
Returns: one label drawn from class 1 for active, class 0 for inactive

The following compounds have reported results that may help.
| compound | assigned category |
| --- | --- |
| NC(=O)c1ccc(C(=O)Nc2cccc(-c3ccc(-c4nc5ccc(C(F)(F)F)cc5[nH]4)cc3)c2)cc1 | class 0 |
| CC1N=C(N)N=C(N)N1OCc1cccc2ccccc12 (stereo unspecified) | class 1 |
| Clc1cccnc1N1CCN(c2ncccc2Cl)CC1 | class 0 |
| O=C(/C=C/c1ccc([N+](=O)[O-])cc1)N1CCC(NS(=O)(=O)c2ccc(Br)cc2)CC1 | class 0 |
| O=C(Nc1cccc([N+](=O)[O-])c1)Nc1cccc(C(F)(F)F)c1 | class 0 |

Consider the additional compound presented here.
Returns: the outcome recorded for CC(C)c1ccc(OCC(O)CN(C)C(C)C(O)c2ccccc2)c(Br)c1 (stereo unspecified) in this assay.
class 0

---

biological target: L-lactate dehydrogenase (Plasmodium falciparum (isolate CDC / Honduras)); assay: PfLDH activity inhibition – cell lysate, 3D7 strain, counter-screen for P. falciparum growth inhibition project (AID 2304);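 note: 0% = vehicle and 100% = reference inhibitor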; conditions: P. falciparum 3D7 crude extract, LDH APAD/NBT absorbance; at 2 µM; stronger effect = higher value
endpoint name: inhibition (%)
Field: numeric (%). Do not append units.

Completed entries (count: 5):
| molecule | target or system | inhibition [%] |
| --- | --- | --- |
| Nc1c(Cl)cc(C(O)CNCCCCCOCCc2ccc3ccccc3n2)cc1Cl (stereo not given) | L-lactate dehydrogenase (Plasmodium falciparum (isolate CDC / Honduras)) | -1 |
| CCCC(CCC)n1ccc2c3c(N)nc(N)nc3ccc21 | L-lactate dehydrogenase (Plasmodium falciparum (isolate CDC / Honduras)) | -2 |
| CCCCCCc1cc(Oc2c(I)cc(C[C@H](N)C(=O)O)cc2I)ccc1O | L-lactate dehydrogenase (Plasmodium falciparum (isolate CDC / Honduras)) | -1 |
| CC(C)NCc1cccc(-c2cccc(-c3nc4ccc(F)cc4[nH]3)c2)c1 | L-lactate dehydrogenase (Plasmodium falciparum (isolate CDC / Honduras)) | 2 |
| c1cc(CNCC2CCN(CC3CCCCC3)CC2)cc(-n2ccnc2)c1 | L-lactate dehydrogenase (Plasmodium falciparum (isolate CDC / Honduras)) | -1 |

Query molecule follows.
Could you share which inhibition value was measured for CS(=O)(=O)CCNCc1cccc(-c2cc3c(Nc4ccc5c(cnn5Cc5ccccc5)c4)ncnc3s2)c1 ?
2

---

assay: antimalarial activity against Dd2 strain (AID 2302);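 note: 0% = DMSO untreated growth and 100% = chloroquine plus artemisinin killed control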; conditions: P. falciparum Dd2 in RBCs, LDH growth readout, 72 h; at 2 µM; stronger effect = higher value
Reported growth inhibition is given for each of the following compounds.
Number only, in %; omit the unit.

// solved cases for growth inhibition follow
| compound | endpoint name | units symbol | result value |
| --- | --- | --- | --- |
| Cc1cc(NN=Cc2ccccc2Cl)c2cccc(C)c2n1 | growth inhibition | % | 98 |
| CCOc1ccc(Br)cc1/C=C/C(=O)Nc1ccc2c(c1)CCCN(C)C2 | growth inhibition | % | 17 |
| N#Cc1cccc(/C=C/C(=O)NC2CCC(CCN3CCc4ccc(-c5cnccn5)cc4CC3)CC2)c1 (stereo not given) | growth inhibition | % | 47 |
| COc1ccccc1CCNc1nc(C)cc(N[C@@H](Cc2ccccc2)C(=O)NCCc2ccccc2)n1 | growth inhibition | % | 89 |

Below: the item to evaluate.
Value lookup for growth inhibition; key = NC(=O)c1ccc(-c2ccc3ccnc(N)c3c2)cc1
98
